Origin of the recorded values: PubChem BioAssay AID1963848

A collection of compounds and their measured viability, T/C
# Test system: 379773-124-R-J2-PDC spheroid viability;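 also: spheroids exposed to drugs for seven days before readout; percent viability relative to DMSO vehicle control taken as 100%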
# method.summary: Anticancer human tumor 379773-124-R-J2-PDC patient-derived endometrial carcinoma cell line growth inhibition [POLQ]
# experimental.conditions: second compound 1 µM; first compound 0.1 µM; active compounds read low; spheroids with HUVEC and MSC
Answer format: numeric, % implied, no suffix.

Take a look at these entries with their results.
| compound | tested.on | viability, T/C, % |
| --- | --- | --- |
| COc1ccc([C@@H](O)c2cc(-c3ncnc4cc(N5CCOCC5)ccc34)c(F)cc2Cl)nn1 + Cc1cccc(N(C)C(=O)C2C(O)CCN2c2nc(C)cc(C(F)(F)F)c2C#N)c1 | 379773-124-R-J2-PDC spheroid viability | 85.4 |
| Cn1ncnc1[C@H]1c2n[nH]c(=O)c3cc(F)cc(c23)N[C@@H]1c1ccc(F)cc1 + COC1C(OC(N)=O)C(O)C(Oc2ccc3c(O)c(NC(=O)c4ccc(O)c(CC=C(C)C)c4)c(=O)oc3c2C)OC1(C)C | 379773-124-R-J2-PDC spheroid viability | 60.9 |
| CC1COCCN1c1cc(-c2ccnn2C)c2ccnc(-c3ccn[nH]3)c2n1 (stereo not given) + Nc1ccc(C#CCN(C(=O)Cc2ncc(C(F)(F)F)cc2C(F)(F)F)c2ccc(F)cc2)nn1 | 379773-124-R-J2-PDC spheroid viability | 60.6 |

// query Need viability, T/C of COc1cccc2c1C(=O)c1c(O)c3c(c(O)c1C2=O)CC(O)(C(=O)CO)CC3OC1CC(N)C(O)C(C)O1 (stereo not given) + COC1C(OC(N)=O)C(O)C(Oc2ccc3c(O)c(NC(=O)c4ccc(O)c(CC=C(C)C)c4)c(=O)oc3c2C)OC1(C)C , thanks.
// result 26.2

// query Same question for COc1cc2cc(C(=O)CCC(=O)O)sc2cc1OC + COC1C(OC(N)=O)C(O)C(Oc2ccc3c(O)c(NC(=O)c4ccc(O)c(CC=C(C)C)c4)c(=O)oc3c2C)OC1(C)C please.
// result 84.1

// query Entry to check: C=CCn1c(=O)c2cnc(Nc3ccc(N4CCN(C)CC4)cc3)nc2n1-c1cccc(C(C)(C)O)n1 + Cc1cccc(N(C)C(=O)C2C(O)CCN2c2nc(C)cc(C(F)(F)F)c2C#N)c1
// result 95.3

// query Next: Cn1ncnc1[C@H]1c2n[nH]c(=O)c3cc(F)cc(c23)N[C@@H]1c1ccc(F)cc1 + Nc1ccc(C#CCN(C(=O)Cc2ncc(C(F)(F)F)cc2C(F)(F)F)c2ccc(F)cc2)nn1
// result 55.1

// query Same for CC1COCCN1c1cc(C2(O)CC3CCC(C2)O3)c2cnn(-c3ccn[nH]3)c2n1 (stereo not given) + COC1C(OC(N)=O)C(O)C(Oc2ccc3c(O)c(NC(=O)c4ccc(O)c(CC=C(C)C)c4)c(=O)oc3c2C)OC1(C)C
// result 41.4

// query Now the same for O=C(c1cc(Cc2n[nH]c(=O)c3ccccc23)ccc1F)N1CCN(C(=O)C2CC2)CC1 + COC1C(OC(N)=O)C(O)C(Oc2ccc3c(O)c(NC(=O)c4ccc(O)c(CC=C(C)C)c4)c(=O)oc3c2C)OC1(C)C
// result 80

// query Same for O=C(Nc1ccc(O)c(NS(=O)(=O)c2ccc(F)cc2)c1)c1ccc(-c2ccccc2)cc1 + COC1C(OC(N)=O)C(O)C(Oc2ccc3c(O)c(NC(=O)c4ccc(O)c(CC=C(C)C)c4)c(=O)oc3c2C)OC1(C)C
// result 73.5
